target: hMPV A2 F (human metapneumovirus); experiment: ELISA on coated recombinant protein, OD 405 nm
EC50: recorded values

# BINDER, EC50, µg/mL
rows = [
    ("MPV487 (antibody, V domains shown) VH: EVQLLESGGGLVQPGRSLRLSCTASGFTFDDYAMHWVRQLPGKGLEWVSGISWNSDNIGYADSVKGRFTISRDNGKNSLYLQMNSLRAEDTAFYYCAKDVRIDYDLLIGHIDYWGPGTLVTVSS VL: TQSPVTLSLSPGERATLSCRASQSFGGYCAWYQQKPGQSPRLLIYDASNRATGVPARFSGSGSGTDFTLTISSLEPEDSAVYFCQQRGNWPIFGQGTRLEI", 0.1),
    ("MPV467 (antibody, V domains shown) VH: EVQLVESGGGVVRPGTSLRVSCAAFDFNFRDYGMHWVRQAPGKGLEWVAGIWYDGSNKDYADSVKGRFTISRDNSQNTLYLQMNSLRVEDTAVYYCARDPRTHREGALSHFDSWGQGTLVTVSS VL: PNELTQDPAVSVALGQTVRITCQGDSLRNYFAGWYQQKPGQAPLLVLYGENIRPSGIPDRFSGSSSGNTVSLTITGAQAEDEADYYCNSRDNSGNHWVFGGGTRLTVL", 0.12),
    ("MPV477 (antibody, V domains shown) VH: EVQLVQSGAEVKKPGASVEVSCKTSGYTFTDYYLHWVRQAPGQGLEWMGWINPRSGGTKYGQKFQGRVTMTRDTSISTAYMDLRGLRSDDTAVYYCARAPLLTVYAVAHRSGENRFDPWGQGTVTVSS VL: QPPSLSGAPGQTVTISCTGSGSNIGAGYDVNWYQCLPGTAPKLLMFDNSNRPSGVPDRFSGSRSGASASLAITGLQAEDEADYYCQSYDSGLSGWVFGGGTKLTVL", 0.023),
]
